Test system: 415267-285-R-J2-PDC complex spheroid viability
Assay: Anticancer human tumor 415267-285-R-J2-PDC patient-derived breast carcinoma cell line growth inhibition [POLQ]; active = viability on the fitted dose curve at most 10% of control; inactive = the rest
Conditions: second compound 10 µM; first compound 0.01 µM
Lab note: assign the record to one of active, inactive

COMPOUND	EXPERIMENTAL_TARGET	GROUP
C=CCn1c(=O)c2cnc(Nc3ccc(N4CCN(C)CC4)cc3)nc2n1-c1cccc(C(C)(C)O)n1 + COC1C(OC(N)=O)C(O)C(Oc2ccc3c(O)c(NC(=O)c4ccc(O)c(CC=C(C)C)c4)c(=O)oc3c2C)OC1(C)C	415267-285-R-J2-PDC complex spheroid viability	inactive
Cn1ncnc1[C@H]1c2n[nH]c(=O)c3cc(F)cc(c23)N[C@@H]1c1ccc(F)cc1 + Cc1cccc(N(C)C(=O)C2C(O)CCN2c2nc(C)cc(C(F)(F)F)c2C#N)c1	415267-285-R-J2-PDC complex spheroid viability	inactive
Cn1ncnc1[C@H]1c2n[nH]c(=O)c3cc(F)cc(c23)N[C@@H]1c1ccc(F)cc1 + COC1C(OC(N)=O)C(O)C(Oc2ccc3c(O)c(NC(=O)c4ccc(O)c(CC=C(C)C)c4)c(=O)oc3c2C)OC1(C)C	415267-285-R-J2-PDC complex spheroid viability	inactive
CC[C@@]1(O)C(=O)OCc2c1cc1n(c2=O)Cc2cc3c(CN(C)C)c(O)ccc3nc2-1 + Nc1ccc(C#CCN(C(=O)Cc2ncc(C(F)(F)F)cc2C(F)(F)F)c2ccc(F)cc2)nn1	415267-285-R-J2-PDC complex spheroid viability	inactive
CC[C@@]1(O)C(=O)OCc2c1cc1n(c2=O)Cc2cc3c(CN(C)C)c(O)ccc3nc2-1 + COC1C(OC(N)=O)C(O)C(Oc2ccc3c(O)c(NC(=O)c4ccc(O)c(CC=C(C)C)c4)c(=O)oc3c2C)OC1(C)C	415267-285-R-J2-PDC complex spheroid viability	inactive

Turning now to a further record.
Problem: State the result this test recorded for CCc1c2c(nc3ccc(O)cc13)-c1cc3c(c(=O)n1C2)COC(=O)[C@]3(O)CC + COC1C(OC(N)=O)C(O)C(Oc2ccc3c(O)c(NC(=O)c4ccc(O)c(CC=C(C)C)c4)c(=O)oc3c2C)OC1(C)C .
Solution: inactive

###

Test system: 415267-285-R-J2-PDC complex spheroid viability
Experiment: Anticancer human tumor 415267-285-R-J2-PDC cell line growth inhibition [POLQ];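 also: spheroids exposed to compounds for one week before readout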
Settings: curve of first compound; second compound 0.0316 µM
pIC50: −log10 of the molar value.
MEASUREMENT_NAME: pIC50

Below, 5 compounds whose answers are already recorded.
COMPOUND	EXPERIMENTAL_TARGET	MEASUREMENT_NAME	DATA_VALUE
CCCS(=O)(=O)Nc1ccc(F)c(C(=O)c2c[nH]c3ncc(-c4ccc(Cl)cc4)cc23)c1F + Nc1ccc(C#CCN(C(=O)Cc2ncc(C(F)(F)F)cc2C(F)(F)F)c2ccc(F)cc2)nn1	415267-285-R-J2-PDC complex spheroid viability	pIC50	< 5.00
C=CCn1c(=O)c2cnc(Nc3ccc(N4CCN(C)CC4)cc3)nc2n1-c1cccc(C(C)(C)O)n1 + Cc1cccc(N(C)C(=O)C2C(O)CCN2c2nc(C)cc(C(F)(F)F)c2C#N)c1	415267-285-R-J2-PDC complex spheroid viability	pIC50	6.35
CC[C@@]1(O)C(=O)OCc2c1cc1n(c2=O)Cc2cc3c(CN(C)C)c(O)ccc3nc2-1 + Nc1ccc(C#CCN(C(=O)Cc2ncc(C(F)(F)F)cc2C(F)(F)F)c2ccc(F)cc2)nn1	415267-285-R-J2-PDC complex spheroid viability	pIC50	7.62
C#Cc1c(F)ccc2cc(O)cc(-c3ncc4c(N5CC6CCC(C5)N6)nc(OCC56CCCN5CC(F)C6)nc4c3F)c12 (stereo unspecified) + Nc1ccc(C#CCN(C(=O)Cc2ncc(C(F)(F)F)cc2C(F)(F)F)c2ccc(F)cc2)nn1	415267-285-R-J2-PDC complex spheroid viability	pIC50	< 5.00
CC1COCCN1c1cc(C2(S(C)(=N)=O)CC2)nc(-c2ccnc3[nH]ccc23)n1 (stereo unspecified) + Cc1cccc(N(C)C(=O)C2C(O)CCN2c2nc(C)cc(C(F)(F)F)c2C#N)c1	415267-285-R-J2-PDC complex spheroid viability	pIC50	6.31

Let us examine a further case.
Problem: Requested read-out: pIC50. Entry: O=C(c1cc(Cc2n[nH]c(=O)c3ccccc23)ccc1F)N1CCN(C(=O)C2CC2)CC1 + COC1C(OC(N)=O)C(O)C(Oc2ccc3c(O)c(NC(=O)c4ccc(O)c(CC=C(C)C)c4)c(=O)oc3c2C)OC1(C)C
Solution: < 5.00
